- RUN_DESCRIPTION: VP16 counterscreen qHTS for inhibitors of ROR gamma transcriptional activity;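 note: Gal4-VP16 expression switched on by copper sulfate through the metallothionein promoter; nearly all actives have a fitted effect of over 50% in size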
- RUN_CONDITIONS: Drosophila S2 Gal4-VP16 UAS-luciferase, luminescence, 20 h; series mostly up to 53.6 µM
Among all 310,000 compounds or so, about 11,000 (3.5%) were called active. Another 8% or so got no clear call; they are omitted. Calls come from the whole dose curve; as a rule, active = well fitted inhibition curve with a large enough effect; inconclusive = small, poorly fitted or top-dose-only effect, or effect the other way; inactive = flat fitted curve, though single readings scatter. Only a selection was taken, and actives are over-represented in it overall.
The reply should be one of these categories: class 1 (active), class 0 (inactive)

MOLECULE	CAT
O=C(C[C@H]1C(=O)N(c2ccc(F)c(F)c2)C[C@@H]1Cc1ccccc1)Nc1ccccc1	class 0
CCc1ccc(NC(=O)Cn2nc(C)c([N+](=O)[O-])c2C)cc1	class 0
CN1/C(=C\C(=O)c2cccnc2Cl)C(C)(C)c2ccccc21	class 0
N#C/C(=C(/O)COC(=O)COc1ccc(Cl)cc1)c1nc2ccccc2[nH]1	class 1
CC(=O)Nc1cccc(OCC(=O)/C=C2\N(C)c3ccccc3C2(C)C)c1	class 1
Cc1ccc(CNC(=O)Cc2cn(C)c3ccccc23)cc1	class 0
CC(=O)Nc1cccc(C(=O)OCN2C(=O)c3ccccc3C2=O)c1	class 0
N#C/C(=C(/O)COc1cccc2ccccc12)c1nc2ccccc2[nH]1	class 1

Query: // param item: O=C(CCc1nnc2ccc(NCc3ccccc3Cl)nn12)NCC1CCN(C2CCCC2)C1 (stereo unspecified) ; yields the recorded call
Response: class 0

Query: // param item: `Cc1ccc(SCc2c(C(=O)N/N=C/c3cccnc3)nnn2-c2nonc2N)cc1` ; yields the recorded call
Response: class 0

Query: // param item: `Nc1nonc1-n1nnc(C(=O)N/N=C/c2cc(Br)ccc2O)c1CSC1=NCCS1` ; yields the recorded call
Response: class 1

Query: // param item: `CC(C)c1ccc(S(=O)(=O)N2CCN(C(=O)c3ccc(N4CCCC4)c([N+](=O)[O-])c3)CC2)cc1` ; yields the recorded call
Response: class 0

Query: // param item: Cc1ccc(C2CCN(C(=S)Nc3cccc(Cl)c3)C2)cc1 (stereo unspecified) ; yields the recorded call
Response: class 1

====

- RUN_DESCRIPTION: VP16 counterscreen qHTS for inhibitors of ROR gamma transcriptional activity;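 note: Gal4-VP16 expression switched on by copper sulfate through the metallothionein promoter; nearly all actives have a fitted effect of over 50% in size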
- RUN_CONDITIONS: Drosophila S2 Gal4-VP16 UAS-luciferase, luminescence, 20 h; series mostly up to 53.6 µM
In all, about 310,000 compounds went through this assay and about 11,000 (3.5%) were called active. Not shown: some 8% with an inconclusive outcome. The call rests on the fitted dose curve; in most records, active means well fitted inhibition curve with a large enough effect; inconclusive means small, poorly fitted or top-dose-only effect, or effect the other way; inactive means flat fitted curve, though single readings scatter. The full list was thinned out, with actives kept by preference.
The reply should be one of these categories: t for active, f for inactive

Query: // param item: `COc1ccc(CCNC(=O)CCc2cn(C)c3ccccc23)c(OC)c1` ; yields the recorded call
Response: f

Query: // param item: `Cc1cc(=O)n2nc(N3CCC(C(=O)Nc4c(F)c(F)c(F)c(F)c4F)CC3)sc2n1` ; yields the recorded call
Response: f

Query: // param item: `Cc1cc(SCc2c(F)cccc2Cl)nc(=O)[nH]1` ; yields the recorded call
Response: f

Query: // param item: `CC(C)CC(=O)Nc1ccc(Cc2ccncc2)cc1` ; yields the recorded call
Response: f

Query: // param item: COC(=O)C(C)Sc1nc2c(c(=O)n(C)c(=O)n2C)n1Cc1cccc(C)c1 (configuration not stated) ; yields the recorded call
Response: f

Query: // param item: `COc1ccc(NS(=O)(=O)c2ccc(NC(=S)NC(=O)CC(C)C)cc2)cc1` ; yields the recorded call
Response: f

Query: // param item: CC1=C(C(=O)OCC2CCCCC2)C(c2ccc(F)cc2)NC(=O)N1 (configuration not stated) ; yields the recorded call
Response: f

Query: // param item: `CCCCNc1nc2c(c(=O)n(C)c(=O)n2C)n1Cc1cccc(OC)c1` ; yields the recorded call
Response: t

Query: // param item: `Cn1c(=O)c2c(nc(OCc3cccnc3)n2Cc2ccccc2)n(C)c1=O` ; yields the recorded call
Response: f

Query: // param item: `Cn1c(=O)c2c(nc(NCCc3ccccc3)n2Cc2ccccc2)n(C)c1=O` ; yields the recorded call
Response: t

Query: // param item: `O=C(c1ccccc1)N1CCN(C(=O)c2cc3nc(-c4ccccc4)cc(C(F)(F)F)n3n2)CC1` ; yields the recorded call
Response: f

Query: // param item: `Cn1c(=O)c2c(nc(NCc3ccccc3)n2CC(N)=O)n(C)c1=O` ; yields the recorded call
Response: f

Each recorded value in this set is attributed to PubChem BioAssay AID2546.
